Study System: T1, human CCR8 (human, UniProt P51685 1-355)
T1 construct: Native CCR8 on human PBMC (CCR8+ CD3+ or CCR8+ CD4+ lymphocytes); also called chemokine (C-C motif) receptor 8
T1 sequence (P51685 whole entry): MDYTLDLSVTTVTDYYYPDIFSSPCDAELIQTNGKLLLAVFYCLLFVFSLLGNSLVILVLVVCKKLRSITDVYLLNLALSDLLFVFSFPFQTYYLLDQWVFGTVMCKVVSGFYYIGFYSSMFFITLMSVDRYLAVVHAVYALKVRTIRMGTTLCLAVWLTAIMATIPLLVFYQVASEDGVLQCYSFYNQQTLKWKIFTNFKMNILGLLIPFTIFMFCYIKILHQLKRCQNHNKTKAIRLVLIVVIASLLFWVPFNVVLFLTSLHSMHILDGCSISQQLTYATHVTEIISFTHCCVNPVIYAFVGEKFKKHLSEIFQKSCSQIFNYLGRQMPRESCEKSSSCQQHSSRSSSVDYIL
Test Summary: flow blocking, PBMC CCR8+CD3+; competitor PE-AB7
Quantity Kind: % Blocking
Respond with the figure and its unit, in that order.

Summary for this binder, AB11 (antibody, V domains shown, Hybridoma monoclonal; also called antibody 11; clone 11) VH: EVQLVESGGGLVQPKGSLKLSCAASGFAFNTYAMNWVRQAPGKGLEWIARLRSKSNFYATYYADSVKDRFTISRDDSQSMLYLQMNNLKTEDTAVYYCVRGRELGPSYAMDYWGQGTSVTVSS VL: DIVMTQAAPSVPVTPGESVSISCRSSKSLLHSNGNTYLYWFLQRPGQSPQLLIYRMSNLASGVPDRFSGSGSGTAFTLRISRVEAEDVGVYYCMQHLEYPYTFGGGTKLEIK : % Blocking is 13.1%

Continuing:
Summary for this binder, AB6 (antibody, V domains shown, Hybridoma monoclonal; Same VH/VL entries as AB5; also called antibody 6; clone 6) VH: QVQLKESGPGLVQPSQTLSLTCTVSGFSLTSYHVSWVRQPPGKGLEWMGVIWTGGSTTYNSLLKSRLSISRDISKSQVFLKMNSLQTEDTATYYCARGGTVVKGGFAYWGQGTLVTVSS VL: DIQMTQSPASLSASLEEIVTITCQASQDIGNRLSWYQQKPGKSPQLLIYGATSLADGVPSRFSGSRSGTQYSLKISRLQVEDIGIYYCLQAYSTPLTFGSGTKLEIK : % Blocking is 32.7%
